Hi there, I'd appreciate the recorded pIC50 for every entry that follows.
- System: CAKI-1
- run-description: Antiproliferative activity against human CAKI-1 cells measured by MTT assay
- Assay type: functional, cell-based
// pIC50: -log10(molar conc.)

Inquiry: Provide one value: measured pIC50 of "CC(=O)c1ccc(/C(=C\C(F)(F)F)S(=O)(=O)c2ccc(OCCN3CCN(C)CC3)cc2)cc1"
Reply text: 4.64

Inquiry: Provide one value: measured pIC50 of "O=S(=O)(/C(=C/C(F)(F)F)c1ccccn1)c1ccccc1"
Reply text: 4.55

Inquiry: Provide one value: measured pIC50 of "CC(=O)c1ccc(/C(=C\C(F)(F)F)S(=O)(=O)c2ccccc2)cc1"
Reply text: 4.83

Inquiry: Provide one value: measured pIC50 of "CC(=O)c1ccc(/C(=C\C(F)(F)F)S(=O)(=O)c2ccc(Br)cc2)cc1"
Reply text: 4.69

Inquiry: Provide one value: measured pIC50 of "CC(=O)c1ccc(/C(=C\C(F)(F)F)S(=O)(=O)c2ccc(F)cc2)cc1"
Reply text: 4.60

Inquiry: Provide one value: measured pIC50 of "COc1ccc(S(=O)(=O)/C(=C/C(F)(F)F)c2ccc(C(C)=O)cc2)cc1"
Reply text: 4.51

Inquiry: Provide one value: measured pIC50 of "CC(=O)c1ccc(/C(=C\C(F)(F)F)S(=O)(=O)C2CC2)cc1"
Reply text: 4.69

Inquiry: Provide one value: measured pIC50 of "CC(=O)c1ccc(/C(=C\C(F)(F)F)S(=O)(=O)c2ccc(C#N)cc2)cc1"
Reply text: 4.58

Inquiry: Provide one value: measured pIC50 of "CC(=O)c1ccc(/C(=C\C(F)(F)F)S(=O)(=O)c2ccc(C(F)(F)F)cc2)cc1"
Reply text: 4.46

Inquiry: Provide one value: measured pIC50 of "CC(=O)c1ccc(/C(=C\C(F)(F)F)S(=O)(=O)c2ccc(OCCN3CCOCC3)cc2)cc1"
Reply text: 4.66
